Molecular target: Sulfhydryl oxidase 1 (Homo sapiens) (UniProt O00391)
Sequence (O00391 whole entry, looked up): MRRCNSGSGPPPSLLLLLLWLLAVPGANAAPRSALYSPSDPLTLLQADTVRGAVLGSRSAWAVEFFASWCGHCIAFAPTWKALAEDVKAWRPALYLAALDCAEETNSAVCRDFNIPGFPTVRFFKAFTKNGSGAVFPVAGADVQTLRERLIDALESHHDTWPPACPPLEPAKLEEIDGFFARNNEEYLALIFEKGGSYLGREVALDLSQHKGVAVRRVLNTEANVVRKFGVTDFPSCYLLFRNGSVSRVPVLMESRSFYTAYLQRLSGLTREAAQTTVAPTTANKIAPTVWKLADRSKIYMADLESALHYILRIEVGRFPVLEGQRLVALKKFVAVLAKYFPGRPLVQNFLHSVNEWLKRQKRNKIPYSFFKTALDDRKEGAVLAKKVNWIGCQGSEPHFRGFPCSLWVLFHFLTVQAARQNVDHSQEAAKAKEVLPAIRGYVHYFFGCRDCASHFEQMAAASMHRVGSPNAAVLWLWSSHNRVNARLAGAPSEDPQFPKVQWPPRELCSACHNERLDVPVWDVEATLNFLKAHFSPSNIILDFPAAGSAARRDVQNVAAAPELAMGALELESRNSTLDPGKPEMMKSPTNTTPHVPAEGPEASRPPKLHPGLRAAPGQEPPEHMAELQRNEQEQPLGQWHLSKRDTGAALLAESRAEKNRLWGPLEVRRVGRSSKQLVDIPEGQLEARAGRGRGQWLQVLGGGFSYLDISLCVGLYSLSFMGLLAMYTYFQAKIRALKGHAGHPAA
Experiment: QSOX1 enzyme inhibitors, primary screen, biochemical, ROS-Glo H2O2 luminescence, HTS (AID 1347418)
Settings: recombinant QSOX1, ROS-Glo H2O2 luminescence; at 12.5 µM; stronger effect = higher value; active = any value above zero
Out of some 1,300 compounds screened, about 750 (58%) were called active. The list shows a part of the results.
Please go through the items and note down their inhibition.
Give bare numbers, in %.

Known results for compounds:
| compound | test.system | result.unit | inhibition |
| --- | --- | --- | --- |
| N#C/C(=C\c1ccc(O)c(O)c1)C(=O)c1ccc(O)c(O)c1 | Sulfhydryl oxidase 1 (Homo sapiens) (UniProt O00391) | % | 17.4 |
| CCSC(=N)N | Sulfhydryl oxidase 1 (Homo sapiens) (UniProt O00391) | % | 0.7 |
| CC(C)(CO)Cc1cc(C(C)(C)C)c(O)c(C(C)(C)C)c1 | Sulfhydryl oxidase 1 (Homo sapiens) (UniProt O00391) | % | 4.9 |

Go through the list and state inhibition for each entry.
1. O=c1onc2n1-c1cc(Br)ccc1OC2
2. O=C(O)C1=CC(=C(c2ccc(O)c(C(=O)O)c2)c2ccc(O)c(C(=O)O)c2)C=CC1=O
3. O=[N+]([O-])c1cccc2cn[nH]c12
4. C=CC(N)CCC(=O)O (configuration not stated)

[-0.8, 17.4, -7.7, 0.6]

Go through the list and state inhibition for each entry.
1. O=C(CCNNC(=O)c1ccncc1)NCc1ccccc1
2. CCCCNc1cc(C(=O)O)cc(S(N)(=O)=O)c1Oc1ccccc1
3. CCCC(CCC)C(=O)O
4. NCCCC(=O)O
5. CC(C)NC[C@H](O)COc1ccc(CC(N)=O)cc1
6. CCCCS(=N)(=O)CCC(N)C(=O)O (configuration not stated)

1: 3.1; 2: -3.4; 3: -0.3; 4: -4; 5: 5.2; 6: 5.6

Go through the list and state inhibition for each entry.
1. CN=C(N)NCCC[C@H](N)C(=O)O
2. CN(Cc1cnc2nc(N)nc(N)c2n1)c1ccc(C(=O)N[C@@H](CCC(=O)O)C(=O)O)cc1
3. Nc1nc2[nH]c(=O)cnc2c(=O)[nH]1

1. -2.7
2. -2.2
3. 2.6

Go through the list and state inhibition for each entry.
1. O=C(O)c1ccccc1Nc1cccc(OCc2ccc3ccccc3n2)c1
2. CC(Cc1ccc(O)c(O)c1)C(C)Cc1ccc(O)c(O)c1 (configuration not stated)
3. COc1ccccc1N1CCN(CCCNc2cc(=O)n(C)c(=O)n2C)CC1
4. CCCCCC(O)c1cccc(OCc2ccc3ccccc3n2)c1 (configuration not stated)

1. 7.4
2. 45.8
3. 10.9
4. 2.8

====

Target: Sulfhydryl oxidase 1 (Homo sapiens)
Experiment: QSOX1 enzyme inhibitors, primary screen, biochemical, ROS-Glo H2O2 luminescence, HTS (AID 1347418)
Details: recombinant QSOX1, ROS-Glo H2O2 luminescence; at 12.5 µM; stronger effect = higher value; active = any value above zero
Screen size: about 1,300 compounds; about 750 (58%) were called active. The list shows a part of the results.
Write down the outcome that applies. Available outcomes: class 1 for active, class 0 for inactive

Examples with answers:
| molecule | test.system | cat |
| --- | --- | --- |
| O=C1Cc2cc(CCN3CCN(c4nsc5ccccc45)CC3)c(Cl)cc2N1 | Sulfhydryl oxidase 1 (Homo sapiens) | class 1 |
| COc1ccc(Cc2nccc3cc(OC)c(OC)cc23)cc1OC | Sulfhydryl oxidase 1 (Homo sapiens) | class 1 |
| NC(CO)C(=O)NNCc1ccc(O)c(O)c1O (stereo unspecified) | Sulfhydryl oxidase 1 (Homo sapiens) | class 1 |
| O=c1c2ccccc2nc2n1CCc1c-2[nH]c2ccccc12 | Sulfhydryl oxidase 1 (Homo sapiens) | class 1 |
| CCCCC[C@H](CC(=O)NO)C(=O)N[C@H](C(=O)N1CCC[C@H]1CO)C(C)C | Sulfhydryl oxidase 1 (Homo sapiens) | class 0 |

Please turn your attention to the following entry.
Each molecule tested received a call. Report the one for CCO/C([O-])=N/c1c[n+](N2CCOCC2)no1 .
class 0
